- System: HEK-293T
- TEST: Incucyte cell viability with HEK293T; also: unitless GR value; below 1 slowed growth and below 0 cell loss
- Type: toxicity, cell-based
- CONDITION_CONTEXT: human, 12 h, 10 µM, compound concentration 10 uM, replicate number 1
PARAMETER: Growth Rate

Solved cases below.
# MOLECULE, SYSTEM, REPORTED
rows = [
    ("Cl.Cl.O=[N+]([O-])c1ccc(CN2CCOCCOCCN(Cc3ccc([N+](=O)[O-])cc3)CCOCC2)cc1", "HEK-293T", 0.04),
    ("CCn1cnc2c(-c3ccc(F)c(-c4ccc(S(=O)(=O)CC)cc4OC)c3)cnnc21 [DARIGABAT]", "HEK-293T", -0.63),
    ("Clc1ccccc1C(c1ccccc1)(c1ccccc1)n1cccn1", "HEK-293T", 0.26),
    ("O=C1CCC(N2Cc3cc(CNC(=O)C(F)(F)c4ccc(Cl)cc4)ccc3C2=O)C(=O)N1 (configuration not stated)", "HEK-293T", 0.83),
]

Input: Note down Growth Rate recorded for CN[C@@H](C)C(=O)N[C@H]1CN(C(=O)CC(C)C)CC[C@H]2CC[C@@H](C(=O)NC(c3ccccc3)c3ccccc3)N2C1=O [XEVINAPANT]
Output: 0.86

Input: Note down Growth Rate recorded for "CCN(c1ccccc1)c1cc(NC)[n+](C)c(C)n1.[Cl-]"
Output: 0.84

Input: Note down Growth Rate recorded for Nc1ccc(S(=O)(=O)Nc2ccnn2-c2ccccc2)cc1 [SULFAPHENAZOLE]
Output: 0.6
